All figures here come from patent US20210292393A1.

molecular target: SARS-CoV-2 spike (S) protein, full length, wild type, expressed on the surface of CHO cells (SARS-CoV-2, UniProt P0DTC2 14-1273)

binder	median fluorescence fold over isotype / fold over isotype
antibody 324 (antibody, V domains shown) VH: QVQLQESGPGLVKPSGTLSLTCAVSGGSISSSNWWSWVRQPPGKGLEWIGEIYHSGSTNYNPSLKSRVTISVDNSKNQFSLKLSSVTAADTAVYYCARESVAAAGISYYYYGMDVWGQGTTVTVSS VL: EIVLTQSPGTLSLSPGERATLSCRASQSVSGRYLAWYQQKPGQAPRLLIYGASSRATGIPDRFSGSGSGTDFTLTISRLEPEDFAVYYCQHYGSSPGTFGQGTRLEIK	9.44
antibody 380 (antibody, V domains shown) VH: QVQLVESGGGVVQPGRSLRLSCAASGFTLKNYGMHWVRQAPGKGLEWVIVLSFDGSDEYKADSVRGRFTVSRDNSKNTLFLQMNSLRPDDTAVYYCAREQPTMIEGGRGPFDIWGQGTMVTVSS VL: EVVMTQSPATLSVSPGDRATLSCRASQGVNSNLAWYQQKPGQAPRLLIYAASTRATGIPARFSASGSGTHFTLTISSLQSEDFAVYYCLQYNNWPPWTFGQGTKLEIK	1.06
antibody 372 (antibody, V domains shown) VH: QVQLVESGGGVVQPGRSLRLSCAASGFTFSSYAMHWVRQAPGKGLEWVAVISYDGSNKYYADSVKGRFTISRDNSKNTLYLQMNSLRAEDTAVYYCARDLGTSALLWFGELFLNYGMDVWGQGTTVTVSS VL: QSALTQPRSVSGSPGQSVTISCTGTSSDVGGYNYVSWYQQHPGKAPKLMIYDVSKRPSGVPDRFSGSKSGNTASLTISGLQAEDEADYYCCSYAGSPILVFGGGTKLTVL	30.2
antibody 340 (antibody, V domains shown) VH: QVQLVQSGAEVKKPGASVKVSCKASGYTFTSYDINWVRQATGQGLEWMGWMNPNSGNTGYAQKFQGRVTMTRNTSISTAYMELSSLRSEDTAVYYCARGRYCTGGVCWGDWYFDLWGRGTLVTVSS VL: QSVLTQPPSVSGAPGQRVTISCTGSSSNIGAGYDVHWYQQLPGTAPKFLIYGNSNRPSGVPDRFSGSKSGTSASLAITGLQAEDEADYYCQSYDSSLSGPVFGGGTKLTVL	33.2
antibody 351 (antibody, V domains shown) VH: HVQLVESGGGVVQPGRSLRLSCAASGFISRNYGMEWVRQAPGQGLEWVAGIWYDGSKKYYADSVKGRFTISRDTSKNTLFLQMDSLRAEDTAVFYCATATKTFCGGDCPPGGMDVWGQGTTVTVST VL: SYVLTQPPSVSVAPGKTAWITCVGNNIESESVHWYQQRPGQAPVLVIYYDSDRPSGIPERFFGSNSGNTATLTISRVEAGDEADYYCQVWDSNSDLMVFGGGTKLTVL	1.06
